# assay-remarks: small-molecule microarray binders of probe aWnt5a, primary screen, biochemical, biotinylated probe, 635/667 nm fluorescence (AID 1113);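 note: score merges 667 nm fluorescence intensity with signal-to-noise per printed feature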
# test-context: higher = more signal
Quick reference for composite z-score among some molecules
readout-type: composite z-score

- COCCOC(=O)N1C(=O)[C@@]2(c3cc(C#Cc4ccc(OC)cc4)ccc31)[C@H](C(=O)NC[C@H](O)c1ccccc1)[C@H]1C(=O)O[C@H](c3ccccc3)[C@H](c3ccccc3)N1[C@@H]2c1ccc(OCCO)cc1: 0.0031
- CC(=O)NCCCC[C@@H]1NC(=O)[C@H]2C[C@@H](C(=O)NCCCCCNC(=O)CS)[C@@H](c3cccc(OCCO)c3)N2C1=O: -0.157
- COc1ccc(C#Cc2ccc3c(c2)[C@]2(C(=O)N3)[C@H](C(=O)Nc3nc4ccccc4s3)[C@H]3C(=O)O[C@H](c4ccccc4)[C@H](c4ccccc4)N3[C@@H]2c2ccccc2OCCO)cc1: -0.0685
- O=C(CS)NCCCCCNC(=O)[C@@H]1C[C@@H]2C(=O)N[C@@H](Cc3ccccc3)C(=O)N2[C@@H]1c1cccc(OCCO)c1: -0.302
- CC(C)N1CC=CC23O[C@@H]4/C=C\CCCOC(=O)C4[C@H]2C(=O)N(CCCCCCO)[C@@H]3C1=O (stereo partly specified): -0.0643
- CCCCCN1CC=CC23O[C@@H]4/C=C\CCC(C)OC(=O)C4[C@H]2C(=O)N(CCCCCCO)[C@@H]3C1=O (stereo partly specified): -0.202
- COC(=O)C(CC#Cc1ccc2c(c1)[C@]1(C(=O)N2)[C@H](C(=O)Nc2nc3ccccc3s2)[C@H]2C(=O)O[C@H](c3ccccc3)[C@H](c3ccccc3)N2[C@@H]1c1ccc(OCCO)cc1)C(=O)OC: 0.189
- CCC(CC)C(O)C1C=CC2C(=O)N(c3ccccc3)C(=O)C2N1Nc1ccc([N+](=O)[O-])cc1 (stereo unspecified): 0.152
- CCCNC(=O)[C@@]1(C)c2ccccc2C(=O)N(Cc2ccccc2)[C@H]1c1ccc(CO)cc1: -0.197
- COc1ccc(CCNC(=O)[C@@]2(Cc3ccccc3I)c3ccccc3C(=O)N(Cc3ccccc3Cl)[C@H]2c2ccc(CO)cc2)cc1: 0.0718
- CCCC=C(CCC)[C@@H](NC(=O)CCc1ccccc1)c1ccc(C(F)(F)F)cc1: 0.451

----------
# assay-remarks: modulators of S6 phosphorylation in cells, primary screen, cell-based, A549, cytoblot, luminescence, serum-stimulated (AID 1158);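 note: serum-stimulated A549 lung adenocarcinoma cells; signal is phosphorylated S6 detected by cytoblot immunostaining with HRP secondary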
# test-context: A549 phospho-S6 cytoblot, 5 h, higher = more signal
readout-type: z-score

* C=CCC(OC(C)=O)[C@@H]1[C@@H](N(Cc2cccc3ccccc23)C(=O)Cc2ccc(F)cc2)c2cc(OCCCO)ccc2N1C(=O)c1ccc(-c2ccccc2)cc1 (some centres undefined) | -0.18
* O=C(N1CCOCC1)[C@@]1(CCS(=O)(=O)c2ccccc2)N=C(c2ccc(OCCCO)cc2)O[C@H]1c1ccccc1 | -0.679
* CCC(CC)C(O)C1C=CC2C(=O)N(c3ccccc3)C(=O)C2N1Nc1ccc([N+](=O)[O-])cc1 (centres undefined) | -0.469
* CCOC(=O)C1=CC[C@@H](c2ccccc2)N(S(=O)(=O)c2ccc(C)cc2)[C@H]1C=Cc1ccccc1 | -0.577

----------
# measured-on: Torsin-1A (Homo sapiens) (UniProt O14656)
# Sequence (O14656 whole entry, looked up): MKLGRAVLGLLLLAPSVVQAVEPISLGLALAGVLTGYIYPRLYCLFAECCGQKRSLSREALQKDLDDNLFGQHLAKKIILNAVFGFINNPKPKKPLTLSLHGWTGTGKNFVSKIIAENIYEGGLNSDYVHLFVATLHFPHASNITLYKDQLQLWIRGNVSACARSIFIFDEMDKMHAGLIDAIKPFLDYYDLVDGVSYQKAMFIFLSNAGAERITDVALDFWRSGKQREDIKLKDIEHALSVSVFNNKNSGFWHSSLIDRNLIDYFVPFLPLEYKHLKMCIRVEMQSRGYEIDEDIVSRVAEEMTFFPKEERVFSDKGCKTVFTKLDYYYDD
# assay-remarks: small-molecule binders of mutant TOR1A in lysate, primary screen, cell lysate, small-molecule microarray, COS7 lysate, 635/667 nm fluorescence (AID 1150);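 note: score pools 667 nm emission and signal to noise measuring lysate protein binding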
# test-context: COS7 hTOR1A mutant lysate, 635 nm fluorescence, higher = more signal
Please note: satisfied applies when composite z-score is 0.7 or greater, and not satisfied applies otherwise.

- O=C(NCCN1CCOCC1)[C@@H]1c2ccccc2C(=O)N(Cc2ccccc2)[C@H]1c1ccc(CO)cc1: not satisfied
- COCC(=C=CC[C@@H](O)c1ccc(OCCO)cc1)CCO: satisfied
- CN1C(=O)[C@@H]2[C@@H](CC(COc3ccccc3)=C([C@H](O)CCc3ccccc3)[C@@H]2CO)C1=O: not satisfied
- Cc1ccc(S[C@]2(C(=O)NC(C)C)CC(=O)N(Cc3ccccc3Cl)[C@@H]2c2ccc(CO)cc2)cc1: not satisfied
- O=C1c2ccccc2[C@](Cc2ccccc2I)(C(=O)NC2CC2)[C@H](c2ccc(CO)cc2)N1Cc1ccccc1C(F)(F)F: not satisfied
- C=CCC(OC(C)=O)[C@@H]1[C@@H](N(Cc2ccc(-c3ccccc3)cc2)C(=O)c2ccc(C)cc2)c2cc(OCCCO)ccc2N1C(=O)Cc1ccc2ccccc2c1 (some centres not stated): not satisfied
- COC(=O)[C@@]1(Cc2ccc(OC)cc2)[C@H]2c3cc(C(=O)N4CCCC4)n(Cc4ccc(S(C)(=O)=O)cc4)c3C[C@H]2CN1C(=O)c1ccccc1: not satisfied
- COc1ccc([Si](C)(C)[C@H]2[C@H](CC(=O)N3Cc4ccccc4C[C@H]3CO)O[C@@]3(C(=O)N(Cc4ccc(N5C(=O)c6cccc7cccc5c67)cc4)c4ccccc43)[C@@H]2C)cc1: satisfied
- O=C1NC(=O)C2C1C=CC(C(O)c1ccccn1)N2Nc1ccc(Cl)cc1Cl (configuration not stated): not satisfied
- Cc1ccccc1C(O)C1C=CC2C(=O)NC(=O)C2N1Nc1ccc(Cl)cc1Cl (configuration not stated): not satisfied
- CCN(CC)c1ccc(N2CC=CC34O[C@@H]5C=CCCOC(=O)C5[C@H]3C(=O)N(CCO)[C@@H]4C2=O)cc1 (some centres not stated): not satisfied
- COCCOC(=O)N1C(=O)[C@@]2(c3cc(C#Cc4ccc(OC)cc4)ccc31)[C@H](C(=O)NC[C@H](O)c1ccccc1)[C@H]1C(=O)O[C@H](c3ccccc3)[C@H](c3ccccc3)N1[C@@H]2c1ccc(OCCO)cc1: satisfied
- C=CC1c2cc(O)c(OC)cc2CCN1Cc1ccc([N+](=O)[O-])o1 (configuration not stated): satisfied
- [N-]=[N+]=NCc1ccccc1[C@H]1OC(c2ccc(OCCCO)cc2)=N[C@@]1(CCS(=O)(=O)c1ccccc1)C(=O)NCc1ccccc1: not satisfied
- CC(C)C(=C=CC[C@@H](O)c1cccc(OCCO)c1)C[C@@H](O)COCc1ccccc1: not satisfied
- COCCOC(=O)N1C(=O)[C@@]2(c3ccccc31)[C@H](c1ccccc1OCCO)N1[C@H](c3ccccc3)[C@H](c3ccccc3)OC(=O)[C@H]1[C@@H]2C(=O)N1CCCCCCC1: satisfied
- CCc1cccc(NC(=O)O[C@H]2[C@H](OC(=O)Nc3ccccc3)[C@H](OC(=O)Nc3ccccc3)[C@@H](OC)O[C@@H]2CO)c1: satisfied
- COCCOC(=O)N1C(=O)[C@@]2(c3cc(C#CCNC(N)=O)ccc31)[C@H](c1ccc(O)cc1)N1[C@H](c3ccccc3)[C@H](c3ccccc3)OC(=O)[C@H]1[C@@H]2C(N)=O: not satisfied
- CCOC(=O)C1=C[C@@H](C(C)(C)C)N(S(=O)(=O)c2ccc(C)cc2)[C@H]1c1ccc(C)cc1: not satisfied
- Cc1ccc(S[C@]2(C(=O)NCc3ccccc3)CC(=O)N(Cc3cc(C(F)(F)F)cc(C(F)(F)F)c3)[C@@H]2c2ccc(CO)cc2I)cc1: not satisfied
- CC(C)N1CC=CC23O[C@@H]4/C=C\CCCOC(=O)C4[C@H]2C(=O)N(CCCCCCO)[C@@H]3C1=O (some centres not stated): not satisfied

----------
# Tested on: Neuregulin-1 EGF-like domain
# assay-remarks: binders of neuregulin-1 EGF-like domain, primary screen, biochemical, small-molecule microarray, 635 nm fluorescence (AID 1081);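 note: binding of the protein to compounds printed on small-molecule microarray slides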
# test-context: small-molecule microarray binding, higher = more signal
readout-type: composite z-score

- CCOC(=O)C=Cc1cc(F)ccc1O: 0.398
- COC(=O)[C@@]1(Cc2ccc(OC)cc2)[C@H]2c3cc(C(=O)N4CCCC4)n(Cc4ccc(OC(F)(F)F)cc4)c3C[C@H]2CN1C(=O)c1ccccc1: 0.283
- [N-]=[N+]=NCc1ccccc1[C@@H]1OC(c2ccc(OCCCO)cc2)=N[C@]1(Cc1ccccc1)C(=O)NCCN1CCOCC1: 1.23
- C=C(COC)/C(=C/C[C@@H](OC(=O)c1ccncc1)c1ccccc1OCCO)c1cc(C(=O)OC)ccc1OC: 0.851

----------
# assay-remarks: basal RPMI8226 mitochondrial membrane potential changes, profiling panel, cell-based, JC-1 fluorescence, 24 h, 100 nL compound (AID 1169); note: test concentration not given here
# test-context: RPMI8226 myeloma, JC-1 mitochondrial potential fluorescence, higher = more signal
Please note: rule met applies when z-score is -0.1 or greater, and rule not met applies otherwise.

- CCCCCN1CC=CC23O[C@@H]4/C=C\CCC(C)OC(=O)C4[C@H]2C(=O)N(CCCCCCO)[C@@H]3C1=O (some centres not stated): rule not met
- COc1ccc(C(O)C2C=CC3C(=O)N(c4ccccc4)C(=O)C3N2Nc2ccccc2F)cc1 (configuration not stated): rule not met
- CC(C)[C@H]1NC(=O)[C@@]23C(=O)N[C@@H](Cc4ccccc4)C2[C@H](C)[C@@]2(C)O[C@H]2C3/C=C/C/C=C\CNC(=O)[C@H](Cc2ccccc2)NC1=O (some centres not stated): rule not met
- CCC(CC)C(O)C1C=CC2C(=O)N(c3ccccc3)C(=O)C2N1Nc1ccc([N+](=O)[O-])cc1 (configuration not stated): rule met
- CC(C)C[C@@H]1NC(=O)CNC(=O)[C@@]23C(=O)N[C@@H](Cc4ccccc4)C2[C@H](C)[C@@]2(C)O[C@H]2C3/C=C/C/C=C\CNC1=O (some centres not stated): rule not met
- O=C1OCCC/C=C\[C@H]2OC34C=CCN(c5ccc6ccccc6c5)C(=O)[C@H]3N(CCCO)C(=O)[C@@H]4C12 (some centres not stated): rule met
- COc1ccc(C(=O)Nc2cccc(CN3C(=O)[C@@]4(O[C@@H](CC(=O)N(CCO)Cc5ccccc5)[C@H]([Si](C)(C)c5ccc(OC)cc5)[C@H]4C)c4ccccc43)c2)cc1: rule not met
